Target: human GR (Homo sapiens)
Sequence (P04150 whole entry): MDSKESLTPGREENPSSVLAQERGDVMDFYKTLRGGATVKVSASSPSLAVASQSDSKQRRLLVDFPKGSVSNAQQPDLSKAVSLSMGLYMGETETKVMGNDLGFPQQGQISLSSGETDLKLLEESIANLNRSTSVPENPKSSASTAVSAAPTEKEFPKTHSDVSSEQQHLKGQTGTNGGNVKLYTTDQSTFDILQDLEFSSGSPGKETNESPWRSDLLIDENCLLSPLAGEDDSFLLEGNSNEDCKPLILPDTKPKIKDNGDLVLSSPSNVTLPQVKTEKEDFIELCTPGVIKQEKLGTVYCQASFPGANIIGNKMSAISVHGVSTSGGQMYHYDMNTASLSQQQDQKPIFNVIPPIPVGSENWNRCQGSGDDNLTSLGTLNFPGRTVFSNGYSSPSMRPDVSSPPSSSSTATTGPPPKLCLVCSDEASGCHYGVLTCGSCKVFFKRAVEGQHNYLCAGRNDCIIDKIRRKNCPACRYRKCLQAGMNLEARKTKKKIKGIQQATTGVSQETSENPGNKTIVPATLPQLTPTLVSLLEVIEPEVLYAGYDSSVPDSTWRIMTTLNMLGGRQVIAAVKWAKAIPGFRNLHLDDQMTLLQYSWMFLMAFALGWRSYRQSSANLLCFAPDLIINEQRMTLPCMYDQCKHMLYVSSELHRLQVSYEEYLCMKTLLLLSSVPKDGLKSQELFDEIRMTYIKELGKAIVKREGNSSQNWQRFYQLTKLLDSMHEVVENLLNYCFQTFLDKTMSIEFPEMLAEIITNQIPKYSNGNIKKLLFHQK
Assay: Trans-Activation Modulation of Glucocorticoid Receptor (GRAMMER), MMTV-LUC reporter, agonist mode
Type: cell-based
Set-up: endogenous in cells
Settings: A549, A549 cells; maximum activity; read-out: Transactivation A549 Cells GRAMMER Emax
Task for the reader: assign each of the following compounds its reported Emax.
Answer in %, number only, no unit symbol.

// query What Emax value was documented for this compound, C[C@]12Cc3cnn(-c4ccc(F)cc4)c3C=C1CC[C@@H]2CN(CCc1ccccc1F)S(=O)(=O)Cc1ccc(Cl)c(Cl)c1 [Example 111] ?
// result 37.6

// query What about this compound? COC(=O)c1ccccc1S(=O)(=O)N(CCO)C[C@H]1CCC2=Cc3c(cnn3-c3ccc(F)cc3)C[C@@]21C [Example 73]
// result 25.4

// query What about this compound? C[C@@H](O)CN(C[C@H]1CCC2=Cc3c(cnn3-c3ccc(F)cc3)C[C@@]21C)S(=O)(=O)Cc1ccccc1C(N)=O [Example 184]
// result 21.6
